- measurementTarget: T1, huCD300F constitutively expressed on 293 Freestyle (Freestyle HEK) cells (human, UniProt Q8TDQ1 20-290)
- T1 construct: also called huCD300LF; Human CD300F
- T1 sequence: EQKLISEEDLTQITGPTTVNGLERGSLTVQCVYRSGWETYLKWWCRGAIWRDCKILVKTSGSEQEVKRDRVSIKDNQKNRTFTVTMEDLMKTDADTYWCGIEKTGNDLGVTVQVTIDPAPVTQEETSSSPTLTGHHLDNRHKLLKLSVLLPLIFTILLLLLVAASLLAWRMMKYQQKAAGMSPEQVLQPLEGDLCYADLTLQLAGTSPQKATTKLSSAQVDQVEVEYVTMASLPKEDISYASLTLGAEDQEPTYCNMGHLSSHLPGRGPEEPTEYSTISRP
- assayInfo: flow cytometry, stable Freestyle HEK cells
- Procedure: Other members of the human CD300 family share sequence homology with human CD300LB. […] Cells were counted and labeled with 200 nM CFSE, 500 nM VioBlue, or a combination of the two to discriminate between CD300LB, Parental cells, and the other CD300 family members. […] Cells were then analyzed using a BD FACSCanto II. […]
assayEndpoint: gMFI
Mention the unit after the number when you answer.

// query gMFI value for entry anti-CD300LB antibody CD-05 (antibody, V domains shown) VH: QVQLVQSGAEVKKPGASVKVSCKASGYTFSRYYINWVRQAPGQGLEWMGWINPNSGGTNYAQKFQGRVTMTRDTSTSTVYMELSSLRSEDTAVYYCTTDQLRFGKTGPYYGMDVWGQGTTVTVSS VL: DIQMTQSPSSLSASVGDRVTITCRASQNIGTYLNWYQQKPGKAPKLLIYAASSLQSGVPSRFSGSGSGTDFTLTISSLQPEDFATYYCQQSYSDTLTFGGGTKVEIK
2730 gMFI
